- Test system: 786-0 renal
- method description: NCI-60 one-dose screen, 48 h (100 = growth as untreated, 0 = no growth, -100 = all killed)
- recorded conditions: 10 µM
- Description: Cells are grown in 96 well plates and exposed to the test compound for 48 hours. Compounds are tested at a single concentration, which is 10^-5 M for most compounds. The reported endpoint is percent growth (GI% or GIPRCNT), where numbers from 0 - 100% represent growth inhibition, and numbers from -100% - 0 represent cell death. For example, a value of 40 represents 60% growth inhibition. A value of 0 means no net growth occurred over the course of the experiment. […]
The panel holds about 83,000 compounds, 20% with a hit somewhere; the sample as a whole holds those more often.
quantity kind: growth (%)

* CCOC(=O)C(CCC(C)C)C(=O)OCC | 113
* CC(=O)c1ccc(C)c(N)c1 | 103
* O=[N+]([O-])c1ccc(-c2ncc(-c3ccc(Br)cc3)o2)cc1 | 97.3
* O=C(Nc1ccccc1)OCCc1ccccc1 | 97.2
* O=[N+]([O-])c1ccc(/C=C/C=C/c2ccccc2)c(Cl)c1 | 95.6
* O=C(O)c1ccc(S(=O)(=O)O)cc1 | 89.7
* CC1(C)S(=O)(=O)OCCOS1(=O)=O | 102

---

- Test system: ACHN renal
- method description: NCI-60 one-dose screen, 48 h (100 = growth as untreated, 0 = no growth, -100 = all killed)
- recorded conditions: 10 µM
The panel holds about 83,000 compounds, 20% with a hit somewhere; the sample as a whole holds those more often.
quantity kind: growth (%)

* CC[N+](C)(CC)CCO | 106
* CCCNc1ccc(C2=NCCCN2)cc1 | 102
* CCOC(=O)CCCC(=O)OCC | 105
* COC(=O)C(O)c1ccccc1 (configuration not stated) | 100
* C=CCNc1ccccc1 | 101
* O=C(c1ccc(O)cc1)c1ccc(O)cc1 | 107
* CC(=O)OC1CC2C(C)(C)OC3CC(=O)OCC32C2CCC3(C)C(=CCC3c3ccoc3)C12C (configuration not stated) | 101

---

Below, each of the compounds is paired with its reported growth value.
- Test system: HOP-92 NSCLC
- method description: NCI-60 one-dose screen, 48 h (100 = growth as untreated, 0 = no growth, -100 = all killed)
- recorded conditions: 10 µM
About 83,000 compounds went through this panel and 20% of them were active in at least one assay; those are over-represented in the sample as a whole.
quantity kind: growth (%)

- CCN(CC)C(=O)/C=C(/C)c1ccccc1: 80.2
- N#CSc1cc(S(N)(=O)=O)ccc1N: 135
- Cc1ccc(O)c(C(=O)c2ccccc2)c1: 93.8
- O=c1[nH]nc(SC2CCCCC2)c(=O)[nH]1: 82
- C=CCCCCCCCCCOC(C)=O: 90.2
- CC1(C)Nc2cccc3c(N=Nc4ccc(N=Nc5ccccc5)c5ccccc45)ccc(c23)N1: 82.6
- C=CC[N+](C)(C)C: 86

---

- Test system: IGROV1 ovarian
- method description: NCI-60 one-dose screen, 48 h (100 = growth as untreated, 0 = no growth, -100 = all killed)
- recorded conditions: 10 µM
- Procedure: Growth inhibition of the IGROV1 human tumor cell line is measured as a screen for anti-cancer activity. Cells are grown in 96 well plates and exposed to the test compound for 48 hours. Compounds are tested at a single concentration, which is 10^-5 M for most compounds. The reported endpoint is percent growth (GI% or GIPRCNT), where numbers from 0 - 100% represent growth inhibition, and numbers from -100% - 0 represent cell death. For example, a value of 40 represents 60% growth inhibition. […]
About 83,000 compounds went through this panel and 20% of them were active in at least one assay; those are over-represented in the sample as a whole.
quantity kind: growth (%)

• Cc1ccccc1N=C(c1ccccc1)C1C(=O)c2ccccc2C1=O = 55.3
• O=C(O)c1cccc([N+](=O)[O-])c1O = 94.4
• CCOC(=O)CCCC(=O)OCC = 102
• CCS(=O)(=O)c1cc(=O)[nH]c(=O)[nH]1 = 136
• O=C(CC(=O)c1ccccc1O)c1ccccc1 = 98.3
• COC(=O)/C=C1\Sc2cc(F)ccc2NC1=O = 102
• CCC(C#N)(CC)c1ccccc1 = 112
